test: yeast display, Sf9 membrane polyspecificity reagent, FACS + sequencing; frameworks hold sequencing errors
Assay metric: polyreactivity (PSR sort gate)

QVQLVESGGGLVQAGGSLRLSCSASGSIFRYYAMGWYRQPPGKEREFVASITYRGGRTYYADSVKGRFTISRDNAKKTVYLQMNSLKPEDTAVYYCAARTRAGAWTSKYHDYWGEGTQVTVSS = high polyreactivity
QVQLVESGGGLVQAGGSLSLSCAASGLTFQEYAMRWYRQAPGKERELVAAISWSGGSTYYADSVKGRFTISRDNAKNTVYLQMNSLKPEDTAVYYCAAEAYEEYITGWYAYDYWGQGTQVTVSS = high polyreactivity
QVHLVESGGGLVQAGGSIRLSCAASGGTFSRNAMGWYRQAPGKERELVAAINSSGVSTSYADSVKGRFTISRDNAKNNVYLQMNSLKPEDTAVYYCAAETSSAEVDYWGQGTQVTVSS = low polyreactivity
QVQLVESGGGLVQAGGSLRLSCAASGSTYYPYAMGWSRQAPGKEWQFVAAITWSGGSTYADSVKGRFTISRDNAKNTVNLQMNSLKPEDTAGYYCAAQPFVIDGGYRGDYWGQGTQETVSS = low polyreactivity

Kindly review the next sequence as well.
IN: Recorded polyreactivity (PSR sort gate) of QVQLVESGGGLVQAGGSLRLSCAASGSTFFEYTMGWYRQAPGKEREFVADIRGRDGSTSYADSVKGRFTISRDNAKNTVYLQMNSLKPEDTAVYYCAVGVYPSYRGPTFSTRRDYWGQGTQVTVSS , please.
OUT: low polyreactivity

Source listed as the nanobody polyreactivity screen of Harvey et al. (2022).
